# Test system: MITF landmark downstream genes-TYR and TRPM1
# procedure-summary: Fluorescent quantitative RT-PCR of MITF downstream genes in B16F10 cells
# Assay type: cell-based
# condition-parameters: Mus musculus, B16-F10, B16F10 cell line, read-out: IC50 of inhibiting mRNA levels of TYR and TRPM1
assay-readout: pIC50
pIC50 is defined as minus the log10 of a concentration measured in mol/L.

Input: # lookup: pIC50 of O=C(/C=C/c1ccco1)Nc1cccc(NC(=O)/C=C/c2ccco2)n1 [TT-012]
Output: 5.70

====

# assayed-target: MITF dimer (Homo sapiens)
# Sequence (O75030 whole entry): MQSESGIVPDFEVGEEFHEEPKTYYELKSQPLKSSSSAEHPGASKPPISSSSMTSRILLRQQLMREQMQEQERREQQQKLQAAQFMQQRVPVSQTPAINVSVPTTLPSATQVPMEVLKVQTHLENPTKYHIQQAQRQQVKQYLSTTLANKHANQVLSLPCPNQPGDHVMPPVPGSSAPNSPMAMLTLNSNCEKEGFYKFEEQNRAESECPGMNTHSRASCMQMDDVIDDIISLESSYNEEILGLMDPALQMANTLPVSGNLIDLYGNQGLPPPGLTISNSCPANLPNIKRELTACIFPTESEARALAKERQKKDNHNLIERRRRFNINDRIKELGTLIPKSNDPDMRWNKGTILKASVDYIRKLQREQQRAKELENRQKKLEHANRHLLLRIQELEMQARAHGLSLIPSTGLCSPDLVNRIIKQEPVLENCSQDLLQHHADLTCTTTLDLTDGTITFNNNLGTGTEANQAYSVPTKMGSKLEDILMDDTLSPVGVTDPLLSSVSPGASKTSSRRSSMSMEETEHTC
# procedure-summary: AlphaScreen high-throughput screening model MIDAS (MITF Dependent Alpha-Screen), MITF dimer formation
# condition-parameters: read-out: IC50 of inhibiting formation of MITF dimer
# Description: In the AlphaScreen high-throughput screening model MIDAS (MITF Dependent Alpha-Screen), MITF was labeled with a Biotin tag recognized by Alpha donor beads and a His tag recognized by Alpha receptor beads, respectively. When MITF formed a dimer, Alpha Donor beads and Alpha Receptor beads were pulled close to each other and detected by 680 nm excitation light and 520-620 nm emission light, thereby monitoring the formation of MITF dimer.
assay-readout: IC50 (nM)
Express it in nM; write the number only.

Input: # lookup: IC50 of "O=C(/C=C/c1ccco1)Nc1cccc(NC(=O)/C=C/c2ccco2)n1"
Output: 10

Each recorded value in this set is attributed to patent US11077097B2.
